Quick list: IC50 per entry.
- system tested: CD73 (Homo sapiens (Human), UniProt P21589)
- Sequence (P21589 27-574): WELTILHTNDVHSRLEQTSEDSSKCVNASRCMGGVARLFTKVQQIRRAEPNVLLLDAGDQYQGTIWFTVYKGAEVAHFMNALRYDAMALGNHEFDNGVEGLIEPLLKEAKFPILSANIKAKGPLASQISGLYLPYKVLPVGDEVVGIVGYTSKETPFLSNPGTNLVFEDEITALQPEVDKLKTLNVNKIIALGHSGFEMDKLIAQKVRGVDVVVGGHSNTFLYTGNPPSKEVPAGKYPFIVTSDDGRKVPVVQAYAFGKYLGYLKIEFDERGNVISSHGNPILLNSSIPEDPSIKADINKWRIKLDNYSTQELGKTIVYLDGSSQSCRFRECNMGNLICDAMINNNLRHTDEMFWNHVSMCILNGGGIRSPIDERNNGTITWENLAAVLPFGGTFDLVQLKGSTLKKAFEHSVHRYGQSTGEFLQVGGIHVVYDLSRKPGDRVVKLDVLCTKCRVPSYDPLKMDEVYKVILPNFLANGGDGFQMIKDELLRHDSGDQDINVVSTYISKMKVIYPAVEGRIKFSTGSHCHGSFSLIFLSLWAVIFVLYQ
- Type: biochemical
- measurement parameters: 1 mM NaH2PO4 in enzyme buffer, CD73 0.3 nM, AMP 15 uM
Number only, in nM; omit the unit.

For the compound C[C@@H](NC(=O)O[C@H]1CN(c2cc(-c3c[nH]c(=O)[nH]c3=O)nn3ccnc23)CC1(F)F)C(F)(F)F , what IC50 is on record?
1.23

Consider next the compound CC(C)(C)NC(=O)O[C@H]1CN(c2cc(-c3c[nH]c(=O)[nH]c3=O)nn3ccnc23)CC1(F)F in the same way.
1.01

* * *

Quick list: EC50 per entry.
- system tested: UniProt:P21589
- method description: MDA-MB-231 Cell Based CD73 Activity Assay
- measurement parameters: MDA-MB-231-GFP cells, RPMI medium with 10% human plasma, 200 uM AMP
Number only, in nM; omit the unit.

[[record]]
compound = "CC(C)(C)[C@H]1C[C@@H]1c1cc(-c2c[nH]c(=O)[nH]c2=O)nn2ccnc12 (racemic)"
endpoint_value = 184

[[record]]
compound = "O=c1[nH]cc(-c2cc(C3CC3)n3nccc3n2)c(=O)[nH]1"
endpoint_value = 145


For the compound O=c1[nH]cc(-c2cc(Cc3ccccc3)c3nccn3n2)c(=O)[nH]1 , what EC50 is on record?
3670

* * *

- system tested: CD73 (Homo sapiens (Human))
- Assay type: biochemical
- measurement parameters: 1 mM NaH2PO4 in enzyme buffer, CD73 0.3 nM, AMP 15 uM
Quick list: pIC50 per entry.
Keep in mind that pIC50 stands for -log10 of concentration in molar terms.

Would you please look over these solved cases?
[[record]]
compound = "O=c1[nH]cc(-c2cc([C@H]3C[C@@H]3c3ccc4ccn(CC(F)(F)F)c4n3)c3nccn3n2)c(=O)[nH]1 [Example 704]"
endpoint_value = 9.14

[[record]]
compound = "CC1(CC(F)(F)F)CN(c2cc(-c3c[nH]c(=O)[nH]c3=O)nn3ccnc23)C1"
endpoint_value = 6.83

[[record]]
compound = "O=C1N(CC(F)(F)F)c2cc([C@H]3C[C@@H]3c3cc(-c4c[nH]c(=O)[nH]c4=O)nn4ccnc34)c(F)cc2C12CC2 (racemic)"
endpoint_value = 8.60


For the compound O=c1[nH]cc(-c2cc(OCCc3ccccc3)c3nccn3n2)c(=O)[nH]1 , what pIC50 is on record?
8.26

Consider next the compound CC(n1ncc2ccc([C@H]3C[C@@H]3c3cc(-c4c[nH]c(=O)[nH]c4=O)nn4ccnc34)cc21)C(F)(F)F (stereo partly shown) in the same way.
9.11

Consider next the compound O=c1[nH]cc(-c2cc([C@H]3C[C@@H]3c3ccc4nc5n(c4c3)[C@@H](C(F)(F)F)CC5)c3nccn3n2)c(=O)[nH]1 in the same way.
8.80

* * *

- system tested: CD73 (Homo sapiens (Human))
- method description: MDA-MB-231 Cell Based CD73 Activity Assay (DMEM)
- measurement parameters: MDA-MB-231-GFP cells, DMEM medium with 10% human plasma, 200 uM AMP
- Procedure: MDA-MB-231 Cell Based CD73 Activity Assay (DMEM) MDA-MB-231-GFP cells were seeded in 384-well plates (Greiner 781946) at a density of 3000 cells per well in 50 μL of DMEM medium with 10% HP (human plasma). Cells were plated into assay plate with compounds pre-spotted, for an overnight compound treatment. 50 uL of 400 uM AMP (final concentration will be 200 uM) was added using Bio-tek dispenser. Plates were incubated for 100 mins. […] The samples were analyzed using Rapid fire.
assay endpoint: pEC50
Keep in mind that pEC50 stands for -log10 of concentration in molar terms.

[[record]]
molecule = "O=c1[nH]cc(-c2cc(N3CC(C(F)F)C4(CC4)C3)c3nccn3n2)c(=O)[nH]1 (centres unmarked) [Example 170]"
assay_endpoint = "pEC50"
endpoint_value = 6.87

[[record]]
molecule = "CC(C)NC(=O)O[C@H]1CN(c2cc(-c3c[nH]c(=O)[nH]c3=O)nn3ccnc23)CC1(F)F [Example 533]"
assay_endpoint = "pEC50"
endpoint_value = 9.77

[[record]]
molecule = "CC(C)NC(=O)O[C@@H]1CN(c2cc(-c3c[nH]c(=O)[nH]c3=O)nn3ccnc23)CC1(F)F [Example 534]"
assay_endpoint = "pEC50"
endpoint_value = 8.29

[[record]]
molecule = "O=c1[nH]cc(-c2cc([C@H]3C[C@@H]3c3ccc(OC(F)F)nc3)c3nccn3n2)c(=O)[nH]1 [Example 140]"
assay_endpoint = "pEC50"
endpoint_value = 8.28

[[record]]
molecule = "C[C@@H](CNc1cc(-c2c[nH]c(=O)[nH]c2=O)nn2ccnc12)c1ccccc1 [Example 500]"
assay_endpoint = "pEC50"
endpoint_value = 6.34


For the molecule O=c1[nH]cc(-c2cc([C@H]3C[C@@H]3c3cc4c(cn3)c(C(F)(F)F)nn4CC(F)(F)F)c3nccn3n2)c(=O)[nH]1 (racemic) [Example 608] , what pEC50 is on record?
9.32

Consider next the molecule O=c1[nH]cc(-c2cc(N3CC4(CC(C(F)F)C4)C3)c3nccn3n2)c(=O)[nH]1 [Example 448] in the same way.
5.87

Consider next the molecule O=c1[nH]cc(-c2cc([C@@H]3C[C@H]3c3cnc(C(F)(F)F)nc3)c3ncc(F)n3n2)c(=O)[nH]1 [Example 273] in the same way.
7.24

Consider next the molecule O=c1[nH]cc(-c2cc(N3CC(OCC(F)F)C(F)(F)C3)c3nccn3n2)c(=O)[nH]1 (centres unmarked) [Example 524] in the same way.
7.96

Consider next the molecule O=c1[nH]cc(-c2cc(N3CC(C(F)F)C3)c3nccn3n2)c(=O)[nH]1 [Example 403] in the same way.
7.55

Consider next the molecule O=C(NC1(C(F)(F)F)CC1)O[C@H]1CN(c2cc(-c3c[nH]c(=O)[nH]c3=O)nn3c(F)cnc23)CC1(F)F [Example 664] in the same way.
9.68

Consider next the molecule O=c1[nH]cc(-c2cc([C@H]3C[C@@H]3c3ccc4nc(C(F)(F)F)n(CC(F)(F)F)c4c3)c3nccn3n2)c(=O)[nH]1 (racemic) [Example 603] in the same way.
10.05

Consider next the molecule O=c1[nH]cc(-c2cc([C@H]3C[C@@H]3c3ccc4cnn(CC(F)(F)F)c4n3)c3nccn3n2)c(=O)[nH]1 (racemic) [Example 601] in the same way.
9.77

Consider next the molecule CC1CN(c2cc(-c3c[nH]c(=O)[nH]c3=O)nn3ccnc23)CC1(F)F (centres unmarked) [Example 479] in the same way.
8.04

Consider next the molecule CC1(C(F)(F)F)CCN(c2cc(-c3c[nH]c(=O)[nH]c3=O)nn3ccnc23)C1 (centres unmarked) [Example 185] in the same way.
7.24

Consider next the molecule O=c1[nH]cc(-c2cc([C@H]3C[C@@H]3c3ccccn3)c3nccn3n2)c(=O)[nH]1 [Example 159] in the same way.
8.58

Consider next the molecule O=c1[nH]cc(-c2cc([C@H]3C[C@@H]3c3ccc4cnn(CC(F)F)c4c3F)c3nccn3n2)c(=O)[nH]1 [Example 129] in the same way.
9.52

Consider next the molecule CC(C)(O)C#Cc1cc(-c2c[nH]c(=O)[nH]c2=O)nn2ccnc12 [Example 685] in the same way.
6.26

Consider next the molecule COc1ccc(C2CN(c3cc(-c4c[nH]c(=O)[nH]c4=O)nn4ccnc34)C2)cc1 [Example 251] in the same way.
6.90

* * *

- system tested: CD73 (Homo sapiens (Human), UniProt P21589)
- Assay type: biochemical
- measurement parameters: 1 mM NaH2PO4 in enzyme buffer, CD73 0.3 nM, AMP 15 uM
pIC50: −log10 of the molar value.
Given measured pIC50, output Yes if it is greater than or equal to 8 and No if not.

Before answering, review these 5 worked examples.
[[record]]
molecule = "O=C(Nc1ccccc1F)OC1CN(c2cc(-c3c[nH]c(=O)[nH]c3=O)nn3ccnc23)CC1(F)F (stereo not shown) [Example 233]"
class_label = "Yes"

[[record]]
molecule = "CC1CN(C(=O)c2ccc([C@H]3C[C@@H]3c3cc(-c4c[nH]c(=O)[nH]c4=O)nn4ccnc34)cc2)C1 (racemic) [Example 290]"
class_label = "Yes"

[[record]]
molecule = "CC(C)C(=O)N1CCC12CCN(c1cc(-c3c[nH]c(=O)[nH]c3=O)nn3ccnc13)C2 (stereo not shown) [Example 657]"
class_label = "No"

[[record]]
molecule = "O=c1[nH]cc(-c2cc(N3CC(F)(F)C(F)(F)C3)n3ncnc3n2)c(=O)[nH]1 [Example 356]"
class_label = "No"

[[record]]
molecule = "O=c1[nH]cc(-c2cc(N3CCC(F)(F)CC3)c3nccn3n2)c(=O)[nH]1 [Example 70]"
class_label = "No"


Decide: is the reported value of pIC50 for CC1(C)CN(c2cc(-c3c[nH]c(=O)[nH]c3=O)nc3ncnn23)CC1(F)F [Example 420] equal to or greater than 8?
Yes
